molecules and their reported AC50
- testedTarget: Beta-2 adrenergic receptor (Homo sapiens, UniProt P07550); also: assay procedure not described here
- Sequence (P07550 whole entry): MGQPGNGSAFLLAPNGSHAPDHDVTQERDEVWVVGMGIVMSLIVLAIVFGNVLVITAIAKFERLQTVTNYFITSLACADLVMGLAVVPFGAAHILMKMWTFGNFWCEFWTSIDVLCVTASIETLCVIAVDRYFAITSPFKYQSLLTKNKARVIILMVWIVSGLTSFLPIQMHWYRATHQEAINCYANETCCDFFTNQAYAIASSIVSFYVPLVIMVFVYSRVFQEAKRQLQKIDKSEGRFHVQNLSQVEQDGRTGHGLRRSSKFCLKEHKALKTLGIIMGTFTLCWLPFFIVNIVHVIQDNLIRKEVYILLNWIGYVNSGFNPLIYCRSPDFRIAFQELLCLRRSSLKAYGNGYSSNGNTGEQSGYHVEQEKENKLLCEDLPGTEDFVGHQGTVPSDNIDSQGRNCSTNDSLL

Below, each entry is followed by its recorded AC50 result.
molecule | testedTarget | AC50
CCCN1CC(NS(=O)(=O)N(CC)CC)CC2Cc3c(O)cccc3CC21 (centres undefined) [QUINAGOLIDE] | Beta-2 adrenergic receptor (Homo sapiens, UniProt P07550) | > 30 µM
C[N+](C)(C)CCOP(=O)([O-])OC[C@H](O)CO | Beta-2 adrenergic receptor (Homo sapiens, UniProt P07550) | > 30 µM
CC(C)N(CCCCOCC(=O)O)c1cnc(-c2ccccc2)c(-c2ccccc2)n1 | Beta-2 adrenergic receptor (Homo sapiens, UniProt P07550) | > 30 µM
COc1ccc(CN2CCN(C(c3ccc(F)cc3)c3ccc(F)cc3)CC2)c(OC)c1OC | Beta-2 adrenergic receptor (Homo sapiens, UniProt P07550) | > 30 µM
CC(=O)[C@H]1CC[C@H]2[C@@H]3C[C@H](C)C4=CC(=O)CC[C@]4(C)[C@H]3[C@@H](O)C[C@]12C | Beta-2 adrenergic receptor (Homo sapiens, UniProt P07550) | > 10 µM
Cn1cc(C(=O)[C@@H]2CCc3nc[nH]c3C2)c2ccccc21 | Beta-2 adrenergic receptor (Homo sapiens, UniProt P07550) | > 30 µM
Oc1cc(O)c(Cl)cn1 | Beta-2 adrenergic receptor (Homo sapiens, UniProt P07550) | > 30 µM
CN[C@]1(c2ccccc2Cl)CCCCC1=O | Beta-2 adrenergic receptor (Homo sapiens, UniProt P07550) | > 30 µM

Record lookup: for Beta-2 adrenergic receptor (Homo sapiens, UniProt P07550), what AC50 belongs to CN(Cc1cnc2nc(N)nc(N)c2n1)c1ccc(C(=O)N[C@@H](CCC(=O)O)C(=O)O)cc1 [METHOTREXATE] ? > 10 µM

Record lookup: for Beta-2 adrenergic receptor (Homo sapiens, UniProt P07550), what AC50 belongs to CCC[C@@H]1C[C@@H](C(=O)N[C@@H]([C@H]2O[C@H](SC)[C@H](O)[C@@H](O)[C@H]2O)[C@@H](C)O)N(C)C1 ? > 10 µM

Record lookup: for Beta-2 adrenergic receptor (Homo sapiens, UniProt P07550), what AC50 belongs to CCc1cc2c(s1)-n1c(C)nnc1CN=C2c1ccccc1Cl ? > 30 µM

Record lookup: for Beta-2 adrenergic receptor (Homo sapiens, UniProt P07550), what AC50 belongs to CCCN(CCC)S(=O)(=O)c1ccc(C(=O)O)cc1 ? > 10 µM

Record lookup: for Beta-2 adrenergic receptor (Homo sapiens, UniProt P07550), what AC50 belongs to O=C(CCCN1CCC(O)(c2ccc(Br)cc2)CC1)c1ccc(F)cc1 ? > 30 µM

Record lookup: for Beta-2 adrenergic receptor (Homo sapiens, UniProt P07550), what AC50 belongs to CC(C)(Oc1ccc(CCNC(=O)c2ccc(Cl)cc2)cc1)C(=O)O [BEZAFIBRATE] ? > 10 µM

###

- testedTarget: UniProt P15207
- Sequence (P15207 whole entry): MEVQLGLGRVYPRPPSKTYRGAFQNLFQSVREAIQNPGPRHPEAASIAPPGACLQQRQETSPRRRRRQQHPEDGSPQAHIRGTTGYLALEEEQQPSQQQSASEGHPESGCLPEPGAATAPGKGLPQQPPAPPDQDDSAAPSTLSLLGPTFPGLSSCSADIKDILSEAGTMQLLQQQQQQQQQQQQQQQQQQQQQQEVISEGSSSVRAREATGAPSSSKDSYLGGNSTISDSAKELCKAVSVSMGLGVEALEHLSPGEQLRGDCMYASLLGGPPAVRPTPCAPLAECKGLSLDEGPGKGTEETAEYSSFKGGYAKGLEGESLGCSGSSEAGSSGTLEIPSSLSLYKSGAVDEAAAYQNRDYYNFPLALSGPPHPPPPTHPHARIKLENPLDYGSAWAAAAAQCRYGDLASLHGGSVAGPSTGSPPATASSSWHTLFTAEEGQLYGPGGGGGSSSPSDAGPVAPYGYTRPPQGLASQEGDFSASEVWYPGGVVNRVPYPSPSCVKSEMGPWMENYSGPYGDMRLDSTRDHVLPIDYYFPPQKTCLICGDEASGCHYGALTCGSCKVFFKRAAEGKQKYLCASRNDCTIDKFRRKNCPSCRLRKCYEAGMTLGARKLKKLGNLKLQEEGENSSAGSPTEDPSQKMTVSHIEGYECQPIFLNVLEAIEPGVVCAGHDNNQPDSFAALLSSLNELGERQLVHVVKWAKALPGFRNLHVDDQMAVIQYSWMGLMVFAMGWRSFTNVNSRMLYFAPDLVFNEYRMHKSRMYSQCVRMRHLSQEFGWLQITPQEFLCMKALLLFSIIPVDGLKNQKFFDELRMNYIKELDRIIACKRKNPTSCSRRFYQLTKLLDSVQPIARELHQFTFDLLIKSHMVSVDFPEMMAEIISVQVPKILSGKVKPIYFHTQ
molecules and their reported AC50

molecule | measuredAttribute | result
CC(CN(C)C)C(C)(O)Cc1ccc(Cl)cc1 (stereo unspecified) | AC50 | > 30 µM

Record lookup: for UniProt P15207, what AC50 belongs to COc1ccc([C@@H]2CC(=O)c3c(O)cc(O)cc3O2)cc1O ? > 10 µM

Record lookup: for UniProt P15207, what AC50 belongs to CCC1(CCC(C)C)C(=O)NC(=O)NC1=O ? > 10 µM

Record lookup: for UniProt P15207, what AC50 belongs to CC(c1cc2ccccc2s1)N(O)C(N)=O (stereo unspecified) ? > 30 µM

Record lookup: for UniProt P15207, what AC50 belongs to O=C(O)Cc1ccccc1Nc1c(Cl)cccc1Cl ? > 30 µM

Record lookup: for UniProt P15207, what AC50 belongs to Cc1cc(=O)n(-c2ccccc2)n1C [ANTIPYRINE] ? > 30 µM

###

Type-1 angiotensin II receptor (Homo sapiens): recorded AC50 for assorted compounds; also: assay procedure not described here
Sequence (P30556 whole entry): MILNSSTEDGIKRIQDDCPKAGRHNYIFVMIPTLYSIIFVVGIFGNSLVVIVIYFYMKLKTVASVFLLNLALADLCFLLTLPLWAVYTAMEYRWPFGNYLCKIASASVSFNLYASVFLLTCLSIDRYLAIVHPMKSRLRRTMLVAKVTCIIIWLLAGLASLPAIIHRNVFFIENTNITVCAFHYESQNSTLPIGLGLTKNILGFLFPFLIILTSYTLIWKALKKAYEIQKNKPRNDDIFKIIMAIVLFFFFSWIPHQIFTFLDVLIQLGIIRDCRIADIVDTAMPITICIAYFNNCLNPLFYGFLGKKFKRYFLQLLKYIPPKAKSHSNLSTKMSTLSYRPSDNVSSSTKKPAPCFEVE

Below, each entry is followed by its recorded AC50 result.
compound | AC50
CC/C=C\C/C=C\C/C=C\C/C=C\C/C=C\CCCC(=O)OCC | > 30 µM
C[N+](C)(C)CCOP(=O)([O-])OC[C@H](O)CO | > 30 µM
COc1cc(C(C)=O)ccc1OCCCN1CCC(c2noc3cc(F)ccc23)CC1 | > 30 µM
O=C(NCCO[N+](=O)[O-])c1cccnc1 | > 30 µM
Cc1nnc(SCC2=C(C(=O)O)N3C(=O)[C@@H](NC(=O)Cn4cnnn4)[C@H]3SC2)s1 | > 300 µM
CN[C@@H](C)[C@@H](O)c1ccccc1 | > 30 µM

Record lookup: for Type-1 angiotensin II receptor (Homo sapiens), what AC50 belongs to Cc1nc(Nc2ncc(C(=O)Nc3c(C)cccc3Cl)s2)cc(N2CCN(CCO)CC2)n1 ? > 30 µM

Record lookup: for Type-1 angiotensin II receptor (Homo sapiens), what AC50 belongs to OC[C@H]1O[C@@H](n2cnc3c2NC=NC[C@H]3O)C[C@@H]1O ? > 30 µM

Record lookup: for Type-1 angiotensin II receptor (Homo sapiens), what AC50 belongs to Cc1ccnc2c1NC(=O)c1cccnc1N2C1CC1 ? > 30 µM

Record lookup: for Type-1 angiotensin II receptor (Homo sapiens), what AC50 belongs to CC[C@@H](CO)NC(=O)[C@@H]1C=C2c3cccc4c3c(cn4C)C[C@H]2N(C)C1 [METHYSERGIDE] ? > 30 µM

Record lookup: for Type-1 angiotensin II receptor (Homo sapiens), what AC50 belongs to CC(C)[C@@H](C)/C=C/[C@@H](C)[C@H]1CC[C@H]2/C(=C/C=C3\C[C@@H](O)CC[C@@H]3C)CCC[C@]12C [DIHYDROTACHYSTEROL] ? > 10 µM

Record lookup: for Type-1 angiotensin II receptor (Homo sapiens), what AC50 belongs to O=C(O)COCCN1CCN(C(c2ccccc2)c2ccc(Cl)cc2)CC1 (centres undefined) ? > 30 µM

Record lookup: for Type-1 angiotensin II receptor (Homo sapiens), what AC50 belongs to Cn1c(=O)c2c(ncn2CCOC(=O)C(C)(C)Oc2ccc(Cl)cc2)n(C)c1=O [THEOFIBRATE] ? > 30 µM

Record lookup: for Type-1 angiotensin II receptor (Homo sapiens), what AC50 belongs to C[C@]12C/C(=C/O)C(=O)C[C@@H]1CC[C@@H]1[C@@H]2CC[C@@]2(C)[C@H]1CC[C@]2(C)O ? 15 µM

###

- testedTarget: Thromboxane A2 receptor (Homo sapiens, UniProt P21731); also: assay procedure not described here
- Sequence (P21731 whole entry): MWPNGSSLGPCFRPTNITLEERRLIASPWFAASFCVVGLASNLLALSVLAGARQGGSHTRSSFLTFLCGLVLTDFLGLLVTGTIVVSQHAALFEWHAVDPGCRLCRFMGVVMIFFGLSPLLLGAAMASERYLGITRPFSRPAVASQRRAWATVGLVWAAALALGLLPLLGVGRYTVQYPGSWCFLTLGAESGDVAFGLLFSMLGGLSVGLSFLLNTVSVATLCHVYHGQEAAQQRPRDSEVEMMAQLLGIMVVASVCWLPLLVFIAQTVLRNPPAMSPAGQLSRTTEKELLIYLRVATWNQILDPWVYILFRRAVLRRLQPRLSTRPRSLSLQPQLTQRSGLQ
- Format: functional, cell-based
measuredAttribute: AC50

molecule | result
CC(CN1c2ccccc2Sc2ccccc21)N(C)C (stereo not drawn) | > 3 µM
Cc1ccc(C)c(OCCCC(C)(C)C(=O)O)c1 | > 30 µM
C[C@H]1CN(C[C@H](Cc2ccccc2)C(=O)NCC(=O)O)CC[C@@]1(C)c1cccc(O)c1 | > 30 µM
CC(C)[C@@H]1CC[C@@H](C)C[C@H]1O | > 30 µM
Cc1cn([C@H]2O[C@@H](CO)[C@H](O)[C@H]2F)c(=O)[nH]c1=O | > 30 µM
CC1(C)O[C@@H]2C[C@H]3[C@@H]4C[C@H](F)C5=CC(=O)C=C[C@]5(C)[C@@]4(F)[C@@H](O)C[C@]3(C)[C@]2(C(=O)CO)O1 [FLUOCINOLONE ACETONIDE] | > 30 µM
O=C(O)CN(CCN(CC(=O)O)CC(=O)O)CCN(CC(=O)O)CC(=O)O | > 30 µM

Proceeding to the next molecule to report its AC50.
Which AC50 is listed for C=CC(=O)Nc1cccc(Oc2nc(Nc3ccc(N4CCN(C)CC4)cc3)nc3ccsc23)c1 ? 4.35 µM
